Listed here: items and their measured %Inh.
Test system: PAK7
Experimental setup: concentration: 1 μM,replicates: in singlicate; n = 1;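 note: KINOMEscan kinase panel screen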
Response body: numeric value in %, unit text excluded.

Use these answered entries as a reference point.
{"Structure": "CC(=O)c1c(-c2ccncc2)[nH]c(-c2ccncc2)c1C", "%Inh [%]": 0}
{"Structure": "CC(C)c1nc(-c2cccc(NS(=O)(=O)c3ccccc3)c2)c(-c2ccnc(Nc3ccc4c(c3)CN(C)CC4)n2)s1", "%Inh [%]": 3}
{"Structure": "O=C(Nc1ccccc1)c1cccc(Oc2ccc3nccn3n2)c1", "%Inh [%]": 0}

Please turn your attention to the following entry.
**Query** I'd like to know its %Inh. The compound in question is Cn1ccc2ncnc(Oc3ccc(NC(=O)Nc4cccc(C(F)(F)F)c4)c(F)c3)c21
**Result** 0

---

Test system: MARK4
Experimental setup: concentration: 1 μM,replicates: in singlicate; n = 1
Listed here: items and their measured %Inh.
Response body: numeric value in %, unit text excluded.

Use these answered entries as a reference point.
{"Compound": "CS(=O)c1ccc(-c2coc3ccc(-c4n[nH]c(=O)o4)cc23)cc1 (stereo not drawn)", "%Inh [%]": 22}
{"Compound": "CCn1c(-c2nonc2N)nc2cncc(CNC3CCNCC3)c21.Cl", "%Inh [%]": 0}
{"Compound": "COC(=O)c1cccc(NC(=O)NC2CCN(c3ccnc(Nc4cc(OC)c(OC)c(OC)c4)n3)C2)c1 (stereo not drawn)", "%Inh [%]": 7}
{"Compound": "C[C@@H]1CCN(C(=O)N2CCCC2)C[C@@H]1N(C)c1ncnc2[nH]ccc12", "%Inh [%]": 5}
{"Compound": "CN1CCN(CCCNc2nccc(-c3c(-c4ccc(F)cc4)nn4cc(C(N)=O)ccc34)n2)CC1", "%Inh [%]": 21}
{"Compound": "CC(=O)Nc1ccc(-c2cc3ncnc(SCC(=O)O)c3s2)cc1", "%Inh [%]": 2}
{"Compound": "CS(=O)(=O)Nc1ccc(-c2ccnc3[nH]ccc23)cc1", "%Inh [%]": 6}
{"Compound": "Cc1cccc2c(-c3ccncc3)c(-c3ccc(F)cc3)nn12.Cl", "%Inh [%]": 0}

**Query** I'd like to know its %Inh. The compound in question is CC(C(=O)NC1CCN(c2ccnc(Nc3ccc(F)cc3)n2)C1)c1ccc(Cl)cc1 (stereo not drawn)
**Result** 1

**Query** I'd like to know its %Inh. The compound in question is O=C(Nc1cccc(C(F)(F)F)c1)c1cccc(Oc2ccc3nccn3n2)c1
**Result** 100

**Query** I'd like to know its %Inh. The compound in question is COC(=O)c1cccc(NC(=O)NC2CCN(c3ccnc(NCc4ccc(F)cc4)n3)CC2)c1
**Result** 0

**Query** I'd like to know its %Inh. The compound in question is O=C(Nc1ccc(Oc2ccc3nc(NC(=O)C4CC4)cn3n2)c(F)c1)c1cccn(-c2ccccc2)c1=O
**Result** 0

**Query** I'd like to know its %Inh. The compound in question is CC(=O)Nc1nc2cnc(Nc3cc(NC(=O)c4cccc(CC(C)(C)C#N)c4)ccc3C)nc2s1
**Result** 8

**Query** I'd like to know its %Inh. The compound in question is Cc1cccc(-c2nc(Nc3ccncc3)c3sccc3n2)n1
**Result** 30

**Query** I'd like to know its %Inh. The compound in question is Cc1ccn2nc(-c3ccc(F)cc3)c(-c3ccncc3)c2c1.Cl
**Result** 0

**Query** I'd like to know its %Inh. The compound in question is Cc1ccc2c(-c3ccnc(Nc4ccc(C(F)(F)F)cc4)n3)cnn2n1
**Result** 32

**Query** I'd like to know its %Inh. The compound in question is CCCC(=O)Nc1n[nH]c2ncccc12
**Result** 0

**Query** I'd like to know its %Inh. The compound in question is O=c1[nH]cc(-c2ccc(O)cc2)c2sc(-c3ccncc3)cc12
**Result** 1
